System: PA-1
Assay: Primary qHTS to identify gynecologic anti-cancer compounds using libraries of approved drugs and bioactive compounds (AID 1345084); note: % is set by controls: 0 for no effect and ±100 for the full control effect; nearly all actives have a fitted effect of over 55% in size
Conditions: Gynecologic cancer cell panel viability, ATPlite luminescence, 48 h; series mostly up to 57.5 µM
Source text: National Center for Advancing Translational Sciences [NCATS] Assay Overview: Chemotherapeutic drug responses vary from cancer to cancer and from patient to patient. […] ATPlite is a luminescence based assay reliant on the conversion of a luciferase substrate to light in the presence of ATP. As a cytotoxic compound will suppress growth and decrease the number of cells, the concentration of ATP will decrease, and less light signal will be detected in the well. […]
Records with an inconclusive call do not appear. Active and inactive are the calls of the source. Calls come from the whole dose curve; as a rule, active = well fitted cell-killing curve with a large enough effect; inconclusive = small, poorly fitted or top-dose-only effect, or effect the other way; inactive = flat fitted curve, though single readings scatter.
Measured Parameter: activity change, negative = cytotoxicity

compound=CCCSP(=O)(OCC)SCCC result=inactive
compound="COC(=O)C1(C)CCC(=O)C2(C)c3c(O)cc(C(C)C)cc3C(O)C(OC(C)=O)C12 (stereo unspecified)" result=inactive
compound="C/C=C(\\C)C(=O)O[C@H]1[C@H](OC(C)=O)[C@]2(CO)[C@H](O)[C@H](O)[C@]3(C)C(=CCC4[C@@]5(C)CC[C@H](O[C@@H]6O[C@H](C(=O)O)[C@@H](O)[C@H](O[C@@H]7OC[C@H](O)[C@H](O[C@@H]8OC[C@H](O)[C@H](O)[C@H]8O)[C@H]7O)[C@H]6O[C@@H]6O[C@H](CO)[C@@H](O)[C@H](O)[C@H]6O)C(C)(C)C5CC[C@]43C)[C@@H]2CC1(C)C (stereo partly specified)" result="-1.59% [at 6.55 µM] (inactive)"
compound=C[C@@H]1C(=O)O[C@H]2[C@H](O)[C@@]34[C@@H]5OC(=O)[C@@]3(O[C@@H]3OC(=O)[C@@H](O)[C@@]34[C@H](C(C)(C)C)[C@H]5O)[C@@]12O result=inactive
compound=Cc1cc(C(=O)CN2CCCC2)c(C)n1-c1ccc(F)cc1 result=inactive

Then this compound:
[ask] Using the record for `C=C(C)[C@H]1O[C@H]2CC[C@@]3(C)[C@@](O)(CC[C@H]4[C@@H]5OC(C)(C)[C@H]6C[C@@H]7C(=C)Cc8c(Cl)cc9[nH]c(c5c9c8[C@@]76O)[C@@]43C)[C@]23O[C@@H]3[C@H]1O` , report its activity change, negative = cytotoxicity.
[reply] inactive

====

Biological target: Thyrotropin-releasing hormone receptor (Homo sapiens)
Experiment: qHTS for Small Molecule Agonists and Allosteric Enhancers of Human TRH Receptor: Validation Screen for Agonists (AID 493127);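 note: intracellular calcium rise by fluo-8 fluorescence before TRH EC20 addition; 0% is about no effect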
Settings: TRH receptor agonist cell assay; at 2 µM; hits give high values
Hi there, I'd appreciate the recorded activation for every entry that follows.
Answers are plain numbers, in %.

Consider the following illustrative entries.
compound=Clc1ccc(N2CC3CCC(C2)N3)nn1 target_or_system="Thyrotropin-releasing hormone receptor (Homo sapiens)" measured_parameter=activation units_label=% number=1.19
compound=C[C@@H]1O[C@H](C[N+](C)(C)C)CS1 target_or_system="Thyrotropin-releasing hormone receptor (Homo sapiens)" measured_parameter=activation units_label=% number=11.2
compound="CCCN(CCC)C1CCc2cccc(O)c2C1 (stereo unspecified)" target_or_system="Thyrotropin-releasing hormone receptor (Homo sapiens)" measured_parameter=activation units_label=% number=1.12
compound=O=c1c2ccccc2[se]n1-c1ccccc1 target_or_system="Thyrotropin-releasing hormone receptor (Homo sapiens)" measured_parameter=activation units_label=% number=3.06
compound="NC(C(=O)O)c1cc(=O)[nH]o1 (stereo unspecified)" target_or_system="Thyrotropin-releasing hormone receptor (Homo sapiens)" measured_parameter=activation units_label=% number=0.688
compound="NC(Cc1ccc(N(CCCl)CCCl)cc1)C(=O)O (stereo unspecified)" target_or_system="Thyrotropin-releasing hormone receptor (Homo sapiens)" measured_parameter=activation units_label=% number=-0.125
compound=C[N+]1(C)CCC(OC(=O)C(c2ccccc2)c2ccccc2)CC1 target_or_system="Thyrotropin-releasing hormone receptor (Homo sapiens)" measured_parameter=activation units_label=% number=0.125
compound=O=[N+]([O-])c1ccc2nc(N3CCNCC3)ccc2c1 target_or_system="Thyrotropin-releasing hormone receptor (Homo sapiens)" measured_parameter=activation units_label=% number=1.44

// each compound listed below needs its activation
1. CN1CCc2cccc(Cl)c2CC1
2. CN1CCC(c2c[nH]c3ccc(O)cc23)CC1
3. COC(=O)N1CCN(C(=O)Cc2ccc(Cl)c(Cl)c2)C(CN2CCCC2)C1 (stereo unspecified)
4. O=S1(=O)N(CCN2CC=C(c3c[nH]c4cc(F)ccc34)CC2)c2cccc3c2N1CCC3
5. CC(N)Cc1c[nH]c2ccc(O)cc12 (stereo unspecified)
6. CN1CC[C@@]2(C)c3cc(O)ccc3N(C)C12 (stereo partly specified)

[reply]
1. 1.31
2. 1
3. 0.875
4. 52.8
5. 1.38
6. -0.188

Dear colleague, could you send me activation for each of the items below? Thanks.
1. O=P(O)(O)C(Cl)(Cl)P(=O)(O)O
2. Oc1ccc2c3c1O[C@H]1c4[nH]c5ccccc5c4C[C@@]4(O)C(C2)N(CC2CC2)CCC314 (stereo partly specified)
3. O=[N+]([O-])c1cc(O)c(O)c([N+](=O)[O-])c1
4. COc1ccc2c(c1)/C(=C/c1cnc[nH]1)C(=O)N2
5. N[C@@H](Cn1oc(=O)[nH]c1=O)C(=O)O
6. CCCN1CC[C@@H]2c3cc(O)ccc3CC[C@@H]21
7. COc1cc(CC(C)N)c(OC)cc1I (stereo unspecified)

[reply]
[-0.25, 1.69, -0.438, 0.562, -0.562, -5.31, 0.562]

Hello, I would appreciate it if you could give activation for each entry below.
1. C[C@H](Cc1ccc2c(c1)OC(C(=O)O)(C(=O)O)O2)NC[C@H](O)c1cccc(Cl)c1
2. CCCN(CCC)[C@H]1CCc2c(F)ccc(O)c2C1

[reply]
[0.625, -3.06]

====

Tested on: NIH3T3
Experiment: qHTS assay to identify novel small-molecules to repurpose for Merkel cell carcinoma treatment (AID 1296009); note: nearly all actives have a fitted effect of over 60% in size
Settings: MCC and control cell lines, CellTiter-Glo viability, 72 h; at 44.8 µM (top of the series) unless noted
Results filed as inconclusive are left out. Activity calls are given as the source filed them. Calls follow the shape of the dose curve; as a rule, active = well fitted inhibition curve with a large enough effect; inconclusive = small, poorly fitted or top-dose-only effect; inactive = flat fitted curve, though single readings scatter.
Measured Parameter: outcome

Solved cases below.
molecule="COCC1OC(=O)c2coc3c2C1(C)C1=C(C3=O)C2CCC(=O)C2(C)CC1O (stereo not given)" result=inactive
molecule=C=C(CO)C(=O)O[C@H]1C/C(C)=C/CC/C(CO)=C/[C@H]2OC(=O)C(=C)[C@H]12 result=inactive
molecule=CCN1C[C@]2(COC(=O)c3ccccc3N3C(=O)C[C@H](C)C3=O)CC[C@H](OC)[C@@]34[C@@H]5C[C@H]6[C@H](OC)[C@@H]5[C@](O)(C[C@@H]6OC)[C@](O)([C@@H](OC)[C@H]23)[C@@H]14 result=inactive
molecule="N#CC(OC1OC(COC2OC(CO)C(O)C(O)C2O)C(O)C(O)C1O)c1ccccc1 (stereo not given)" result="inactive [at 17.4 µM]"

[ask] Tell me the measured outcome of CC(=O)O[C@H]1C[C@@H](OC(C)=O)C(C)(C)C2C[C@@H](O)[C@]3(C)C(CC[C@@]4(C)[C@H](C5=CC(=O)OC5O)C[C@H]5O[C@]543)[C@]21C (stereo not given in full) , please.
[reply] inactive [at 17.4 µM]

====

System: CP286
Assay: qHTS profiling for inhibitors of Plasmodium falciparum proliferation (AID 504749); note: nearly all actives have a fitted effect of over 60% in size
Settings: P. falciparum in erythrocytes, SYBR Green DNA, 72 h; series mostly up to 28.7 µM
Results filed as inconclusive are left out. The source made the active and inactive calls. The call rests on the fitted dose curve; in most records, active means well fitted inhibition curve with a large enough effect; inconclusive means small, poorly fitted or top-dose-only effect; inactive means flat fitted curve, though single readings scatter.
The reply should name one outcome from active, inactive

Before answering, review these 5 worked examples.
compound=Clc1ccc(C2(Cn3cncn3)OCCO2)c(Cl)c1 discrete_label=inactive
compound=CC(C)(C)c1cc(O)ccc1O discrete_label=active
compound=O=[N+]([O-])C(Br)(CO)CO discrete_label=inactive
compound=O=S(=O)(O)c1cc(O)ccc1O discrete_label=inactive
compound="COc1ccc2c(c1OC)C(=O)OC2C1c2cc3c(cc2CCN1C)OCO3 (centres undefined)" discrete_label=inactive

[ask] Which outcome was entered for the compound CCC1(c2ccccc2)C(=O)NC(=O)N(C)C1=O (centres undefined) in this test?
[reply] inactive

[ask] State the result this test recorded for NCC(O)c1cccc(O)c1 (centres undefined) .
[reply] inactive

[ask] Name the outcome recorded for `[O]=[Cr](=[O])([OH])[O][Cr](=[O])(=[O])[OH]` in the assay.
[reply] inactive

[ask] Write down the call the test reported for this compound. Item: `S=C=S`
[reply] inactive

[ask] Record request — test call for `O=C(OCCN1CCCCC1)C(O)(c1ccccc1)c1ccccc1`
[reply] inactive

[ask] Test call for this compound, please: C=CCN1CCC23c4c5ccc(O)c4O[C@H]2C(=O)CC[C@@]3(O)C1C5 (some centres undefined)
[reply] inactive

====

Biological target: Ubiquitin carboxyl-terminal hydrolase 2 (Homo sapiens)
Assay: qHTS Validation Assay for Inhibitors of Ubiquitin-specific Protease USP2a Using CHOP2 as the Reporter (AID 463106)
Details: USP2a cleavage of CHOP2 reporter, enzymatic; series mostly up to 38.3 µM
Results filed as inconclusive are left out. Activity calls are given as the source filed them. Calls come from the whole dose curve; as a rule, active = well fitted inhibition curve with a large enough effect; inconclusive = small, poorly fitted or top-dose-only effect, or effect the other way; inactive = flat fitted curve, though single readings scatter.
Choose the fitting class; nothing outside yes (active), no (inactive) is accepted.

Worked cases, answers included:
molecule=COc1ccc(CNC(=O)/C=C/c2ccc3[nH]cc(CCN(C)C)c3c2)cc1 discrete_label=no
molecule=N=C(N)c1ccc(CS(=O)(=O)F)cc1 discrete_label=no
molecule=CC(=O)NBr discrete_label=no
molecule="COc1ccc2c(c1)C13CCCCC1C(C2)N(C)CC3 (stereo unspecified)" discrete_label=no
molecule="CC(Cc1ccc(OCC(=O)O)cc1)NCC(O)c1cccc(Cl)c1 (stereo unspecified)" discrete_label=no

[ask] What is the recorded call for this molecule in the test? `C[C@H](N)Cc1cccc(C(F)(F)F)c1`
[reply] no

[ask] Any idea what this test logged for C[N+]1(C)CCOC(O)(c2ccc(-c3ccc(C4(O)C[N+](C)(C)CCO4)cc3)cc2)C1 (stereo unspecified) ?
[reply] no

[ask] Hello, I am checking results. What call was entered for `CN1CC[C@@]2(C)c3cc(OC(=O)Nc4ccccc4)ccc3N(C)[C@@H]12` ?
[reply] no

[ask] Field: outcome | Entry: `c1ccc2cc(CC3=NCCN3)ccc2c1`
[reply] no

[ask] Status in this test for `N[C@@]1(C(=O)O)CC[C@@H](C(=O)O)C1` ?
[reply] no

[ask] Outcome logged for `C#CCN[C@H](C)Cc1ccccc1` in this assay:
[reply] no

[ask] Tell me the assay call for NC(Cc1cc(O)c(O)cc1O)C(=O)O (stereo unspecified) please.
[reply] yes
